Data origin, for the record: ChEMBL document CHEMBL1143113

# target-system: Histone deacetylase 1 (Homo sapiens, UniProt Q13547)
# Sequence (Q13547 whole entry): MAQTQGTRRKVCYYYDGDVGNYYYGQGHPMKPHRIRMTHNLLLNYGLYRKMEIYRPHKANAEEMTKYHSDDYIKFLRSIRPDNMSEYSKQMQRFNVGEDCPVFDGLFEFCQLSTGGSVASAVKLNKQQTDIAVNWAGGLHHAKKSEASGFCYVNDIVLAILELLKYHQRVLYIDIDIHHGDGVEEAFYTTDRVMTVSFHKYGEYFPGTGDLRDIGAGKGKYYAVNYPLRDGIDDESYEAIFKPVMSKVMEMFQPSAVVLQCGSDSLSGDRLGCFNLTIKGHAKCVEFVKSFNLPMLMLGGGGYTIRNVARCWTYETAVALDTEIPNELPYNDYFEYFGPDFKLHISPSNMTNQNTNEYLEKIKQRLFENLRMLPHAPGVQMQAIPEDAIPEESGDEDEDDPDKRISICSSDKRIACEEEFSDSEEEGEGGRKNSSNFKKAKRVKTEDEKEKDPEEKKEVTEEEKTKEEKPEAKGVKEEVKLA
# experiment-description: Inhibition of human recombinant HDAC1
observable: IC50 (nM)

{"compound-structure": "Nc1nc(NCc2ccc(C(=O)Nc3ccccc3N)cc2)nc(NC2CCCC2)n1", "target-system": "Histone deacetylase 1 (Homo sapiens, UniProt Q13547)", "test-value": 200}

[1] Nc1ccccc1NC(=O)c1ccc(CNc2cccc(F)n2)cc1
[2] CCCCn1cnc2c(NCc3ccc(C(=O)Nc4ccccc4N)cc3)nc(Cl)nc21
stdin: Endpoint returns whichever of 1 and 2 has the numerically higher IC50. // return label of chosen record
stdout: 1

[A] COc1ccc(-c2cc(Cl)nc(NCc3ccc(C(=O)Nc4ccccc4N)cc3)n2)cc1OC
[B] Nc1ccccc1NC(=O)c1ccc(CNc2nc(NC3CC3)nc(NC3Cc4ccccc4C3)n2)cc1
stdin: Lab note: record which item had the higher IC50, A or B . # reply format: chosen label
stdout: A

[A] COc1cccc(NCc2ccc(C(=O)Nc3ccccc3N)cc2)n1
[B] Nc1ccccc1NC(=O)c1ccc(CSc2ccccn2)cc1
[C] Nc1nc(NCc2ccc(C(=O)Nc3ccccc3N)cc2)nc(N2CCOCC2)n1
stdin: Rank the 3 compounds: largest IC50 first, smallest last. In your reply, arrange the labels in the requested order.
stdout: B, C, A

* * *

# System: HCT-116
# experiment-description: Cytotoxicity against human HCT116 cells by MTT assay
# Type: functional, cell-based
observable: pIC50
Kindly note that pIC50 refers to -log10 of the concentration in mol/L and answer with the value alone.

stdin: Supply recorded pIC50 for COc1cc(OC)nc(NCc2ccc(C(=O)Nc3ccccc3N)cc2)n1 here.
stdout: 6.22

stdin: Could you please provide reported pIC50 for Nc1ccccc1NC(=O)c1ccc(CSc2ccccn2)cc1 ? Thanks!
stdout: 6.00

stdin: Respond only with pIC50 recorded for COc1cc(NCc2ccc(C(=O)Nc3ccccc3N)cc2)ncn1
stdout: 6.00

stdin: Fill in pIC50 for record Cc1cc(C)nc(NCc2ccc(C(=O)Nc3ccccc3N)cc2)n1
stdout: 6.00

* * *

# target-system: Histone deacetylase 7 (Homo sapiens) (UniProt Q8WUI4)
# Sequence (Q8WUI4 whole entry): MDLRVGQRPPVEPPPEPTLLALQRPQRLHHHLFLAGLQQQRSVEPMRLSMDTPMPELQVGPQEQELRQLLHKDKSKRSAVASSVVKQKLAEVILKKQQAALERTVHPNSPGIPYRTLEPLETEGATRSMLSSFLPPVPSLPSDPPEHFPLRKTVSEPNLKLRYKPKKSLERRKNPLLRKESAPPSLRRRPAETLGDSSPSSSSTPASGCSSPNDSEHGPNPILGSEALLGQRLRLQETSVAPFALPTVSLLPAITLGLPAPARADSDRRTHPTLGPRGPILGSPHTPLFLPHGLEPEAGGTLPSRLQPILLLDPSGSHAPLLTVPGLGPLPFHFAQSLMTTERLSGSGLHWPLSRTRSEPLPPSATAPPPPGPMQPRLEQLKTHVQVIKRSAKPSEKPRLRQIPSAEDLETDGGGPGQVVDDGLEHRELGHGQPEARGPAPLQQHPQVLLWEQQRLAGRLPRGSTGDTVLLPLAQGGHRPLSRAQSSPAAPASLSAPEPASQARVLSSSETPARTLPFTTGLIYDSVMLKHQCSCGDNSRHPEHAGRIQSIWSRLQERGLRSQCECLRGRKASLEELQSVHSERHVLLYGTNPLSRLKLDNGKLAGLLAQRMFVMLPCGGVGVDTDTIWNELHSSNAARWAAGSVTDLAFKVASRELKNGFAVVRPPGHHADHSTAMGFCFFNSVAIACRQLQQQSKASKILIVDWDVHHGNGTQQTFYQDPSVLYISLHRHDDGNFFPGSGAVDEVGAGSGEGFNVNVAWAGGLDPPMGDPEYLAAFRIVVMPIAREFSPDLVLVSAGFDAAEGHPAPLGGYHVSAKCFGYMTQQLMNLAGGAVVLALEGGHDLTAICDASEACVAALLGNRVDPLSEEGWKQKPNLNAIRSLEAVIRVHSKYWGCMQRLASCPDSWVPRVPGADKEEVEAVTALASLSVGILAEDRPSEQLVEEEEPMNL
# experiment-description: Activity against HDAC7
Active and inactive are the calls of the source. The rule behind the calls is not given here.

{"compound-structure": "Nc1ccccc1NC(=O)c1ccc(CNc2nc(NCCN3CCOCC3)nc(NC3Cc4ccccc4C3)n2)cc1", "Activity": "inactive"}
{"compound-structure": "Nc1nc(NCc2ccc(C(=O)Nc3ccccc3N)cc2)nc(NC2Cc3ccccc3C2)n1", "Activity": "inactive"}
{"compound-structure": "Nc1nc(NCc2ccc(C(=O)Nc3ccccc3N)cc2)nc(NC2CCCC2)n1", "Activity": "inactive"}
{"compound-structure": "Nc1nc(NCc2ccc(C(=O)Nc3ccccc3N)cc2)nc(N2CCOCC2)n1", "Activity": "inactive"}

* * *

# target-system: Histone deacetylase 4 (Homo sapiens)
# experiment-description: Activity against HDAC4
Activity calls are given as the source filed them. No cut-off for these calls is given here.
observable: Activity

{"compound-structure": "Nc1nc(NCc2ccc(C(=O)Nc3ccccc3N)cc2)nc(NC2Cc3ccccc3C2)n1", "target-system": "Histone deacetylase 4 (Homo sapiens)", "observable": "Activity", "test-value": "inactive"}
{"compound-structure": "Nc1nc(NCc2ccc(C(=O)Nc3ccccc3N)cc2)nc(NC2CCCC2)n1", "target-system": "Histone deacetylase 4 (Homo sapiens)", "observable": "Activity", "test-value": "inactive"}
{"compound-structure": "Nc1ccccc1NC(=O)c1ccc(CNc2nc(NCCN3CCOCC3)nc(NC3Cc4ccccc4C3)n2)cc1", "target-system": "Histone deacetylase 4 (Homo sapiens)", "observable": "Activity", "test-value": "inactive"}
{"compound-structure": "Nc1nc(NCc2ccc(C(=O)Nc3ccccc3N)cc2)nc(N2CCOCC2)n1", "target-system": "Histone deacetylase 4 (Homo sapiens)", "observable": "Activity", "test-value": "inactive"}
